- TGT: Serotonin 1 (5-HT1) receptor (Rattus norvegicus, UniProt P28564+P30940+P19327+P28565)
- METHOD_DESCRIPTION: Ability to bind at 5-hydroxytryptamine 1 receptor of rat hippocampus by displacing [3H]5-HT
- Format: tissue-based
ASSAY_READOUT: IC50 (nM)
Number in nM, nothing else.

Data point: OC(CCCN1CCN(c2nccc3sccc23)CC1)c1ccc(F)cc1 (stereo not drawn) ; IC50 = 3.8

Data point: Cl.c1cc2sccc2c(N2CCNCC2)n1 ; IC50 = 71.3

Data point: Cl.O=C1c2ccccc2S(=O)(=O)N1CCCCN1CCN(c2nccc3sccc23)CC1 ; IC50 = 2.3

----------
- TGT: Serotonin 2 (5-HT2) receptor (Rattus norvegicus, UniProt P30994+P08909+P14842)
- METHOD_DESCRIPTION: Ability to bind at serotonin 5-hydroxytryptamine 2 receptors of rat cortex by displacing [3H]spiperone
ASSAY_READOUT: IC50 (nM)
Number in nM, nothing else.

Hey, Serotonin 2 (5-HT2) receptor (Rattus norvegicus, UniProt P30994+P08909+P14842) data for Cl.c1cc2occc2c(N2CCNCC2)n1 : IC50 came out at 377

Hey, Serotonin 2 (5-HT2) receptor (Rattus norvegicus, UniProt P30994+P08909+P14842) data for CC1(C)CC(=O)N(CCCCN2CCN(c3nccc4sc(Br)cc34)CC2)C(=O)C1.Cl : IC50 came out at 70.9

Hey, Serotonin 2 (5-HT2) receptor (Rattus norvegicus, UniProt P30994+P08909+P14842) data for Cl.O=C1CCCC(=O)N1CCCCN1CCN(c2nccc3sccc23)CC1 : IC50 came out at 19.1

Hey, Serotonin 2 (5-HT2) receptor (Rattus norvegicus, UniProt P30994+P08909+P14842) data for Cl.c1cc2sccc2c(N2CCNCC2)n1 : IC50 came out at 141

Hey, Serotonin 2 (5-HT2) receptor (Rattus norvegicus, UniProt P30994+P08909+P14842) data for Cl.O=C1c2ccccc2S(=O)(=O)N1CCCCN1CCN(c2nccc3sccc23)CC1 : IC50 came out at 5.7

Hey, Serotonin 2 (5-HT2) receptor (Rattus norvegicus, UniProt P30994+P08909+P14842) data for Cl.O=C1c2ccccc2C(=O)N1CCCCN1CCN(c2nccc3sccc23)CC1 : IC50 came out at 2.8

Hey, Serotonin 2 (5-HT2) receptor (Rattus norvegicus, UniProt P30994+P08909+P14842) data for CC1(C)CC(=O)N(CCCCN2CCN(c3nccc4sccc34)CC2)C(=O)C1.Cl : IC50 came out at 3

Hey, Serotonin 2 (5-HT2) receptor (Rattus norvegicus, UniProt P30994+P08909+P14842) data for Cl.OC(CCCN1CCN(c2nccc3occc23)CC1)c1ccc(F)cc1 (configuration not stated) : IC50 came out at 55.2

Hey, Serotonin 2 (5-HT2) receptor (Rattus norvegicus, UniProt P30994+P08909+P14842) data for O=C1COCC(=O)N1CCCCN1CCN(c2nccc3occc23)CC1 : IC50 came out at 55.2

Hey, Serotonin 2 (5-HT2) receptor (Rattus norvegicus, UniProt P30994+P08909+P14842) data for OC(CCCN1CCN(c2nccc3sccc23)CC1)c1ccc(F)cc1 (configuration not stated) : IC50 came out at 5.8

Hey, Serotonin 2 (5-HT2) receptor (Rattus norvegicus, UniProt P30994+P08909+P14842) data for O=C1CSCC(=O)N1CCCCN1CCN(c2nccc3sccc23)CC1 : IC50 came out at 6.7

Hey, Serotonin 2 (5-HT2) receptor (Rattus norvegicus, UniProt P30994+P08909+P14842) data for CC1CC(=O)N(CCCCN2CCN(c3nccc4sccc34)CC2)C(=O)C1.Cl : IC50 came out at 4.2
